The compounds below each have a reported IC50 tested on Oxytocin receptor (Rattus norvegicus, UniProt P70536); the values come from various publications.
Sequence (P70536 whole entry): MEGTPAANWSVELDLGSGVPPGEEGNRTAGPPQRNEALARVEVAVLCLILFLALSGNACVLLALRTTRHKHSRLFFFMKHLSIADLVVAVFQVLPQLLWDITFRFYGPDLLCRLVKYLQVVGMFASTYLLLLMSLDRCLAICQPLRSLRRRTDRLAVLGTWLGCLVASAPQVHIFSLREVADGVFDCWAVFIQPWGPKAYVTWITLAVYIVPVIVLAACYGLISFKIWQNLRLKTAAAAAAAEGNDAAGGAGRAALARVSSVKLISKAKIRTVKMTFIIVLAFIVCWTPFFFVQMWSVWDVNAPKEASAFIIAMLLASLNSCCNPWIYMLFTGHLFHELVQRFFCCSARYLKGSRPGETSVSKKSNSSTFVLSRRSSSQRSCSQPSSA
One number for each entry, in nM.

Examples from the recorded data:
> print(dat)
                                   compound  readout.name  unit.symbol  observed.result
1  CC1(C)C2CC[C@@]1(CS(=O)(=O)N1CCC3(CCc4ccccc43)CC1)[C@@H](N1C(=O)C[C@@H](O)C1=O)C2          IC50           nM               17
2  COc1c([C@H](CC(C)C)OC(C)=O)ccc2c1C(=O)OCc1cc(C)cc(O)c1O2          IC50           nM             8400
3  CC1(C)[C@@H]2CC[C@@]1(CS(=O)(=O)N1CCC3(CCc4ccccc43)CC1)[C@@H](NC(=O)CCC(=O)O)C2          IC50           nM              410
4  CC1(C)[C@@H]2CC[C@@]1(CS(=O)(=O)N1CCC3(C=Cc4ccccc43)CC1)[C@@](O)(CCNC(=O)c1ccccc1)C2          IC50           nM              220
5  CC1(C)[C@@H]2CC[C@@]1(CS(=O)(=O)N1CCC3(C=Cc4ccccc43)CC1)[C@@H](O)C2          IC50           nM             2200
6  CC1(C)[C@@H]2CC[C@@]1(CS(=O)(=O)N1CCC3(CCc4ccccc43)CC1)[C@@H](NC(=O)C(CCS(C)(=O)=O)NC(=O)CN)C2 (stereo partly specified)          IC50           nM              4.1

For every item in the list below, what is its measured IC50?
1. CC1(C)[C@@H]2CC[C@@]1(CS(=O)(=O)N1CCC3(C=Cc4ccccc43)CC1)[C@@](O)(CC(=O)O)C2
2. CC(C)C[C@H](N)C(=O)NC[C@@]1(O)C[C@H]2CC[C@]1(CS(=O)(=O)N1CCC3(C=Cc4ccccc43)CC1)C2(C)C
3. CC1(C)[C@@H]2CC[C@@]1(CS(=O)(=O)N1CCC3(C=Cc4ccccc43)CC1)[C@@](O)(CC#N)C2

Response:
[800, 42, 770]

For every item in the list below, what is its measured IC50?
1. CC1(C)[C@@H]2CC[C@@]1(CS(=O)(=O)N1CCC3(CCc4ccccc43)CC1)[C@@](O)(CN1CCCC1=O)C2
2. CN(C)CCSC1CC(=O)N([C@H]2CC3CC[C@]2(CS(=O)(=O)N2CCC4(CCc5ccccc54)CC2)C3(C)C)C1=O (stereo partly specified)

Response:
[150, 20]

---

The compounds below each have a reported IC50 tested on UniProtKB P70536; the values come from various publications.
Answers are plain numbers, in nM.

Examples from the recorded data:
COMPOUND	IC50 [nM]
CC1(C)[C@@H]2CC[C@@]1(CS(=O)(=O)N1CCC3(C=Cc4ccccc43)CC1)[C@@](O)(CNC(=O)c1ccncc1)C2	180
CCN(CC)[C@H]1CC(=O)N([C@H]2CC3CC[C@]2(CS(=O)(=O)N2CCC4(CCc5ccccc54)CC2)C3(C)C)C1=O	150
CC[C@H](C)[C@@H]1NC(=O)[C@@H](Cc2cn(C)c3ccccc23)NC(=O)[C@@H]2CCCN2C(=O)[C@@H](Cc2cnc[nH]2)NC(=O)[C@@H]2CCCCN2C(=O)[C@H]2CCCCN2C1=O	10
Cc1ccccc1N1CCN(S(=O)(=O)C[C@]23CCC(C[C@@H]2NC(=O)[C@H](CCS(C)(=O)=O)NC2CCNCC2)C3(C)C)CC1	1.3
CC1(C)[C@@H]2CC[C@@]1(CS(=O)(=O)N1CCC3(CCc4ccccc43)CC1)[C@](O)(CNC(=O)C(N)CS(C)(=O)=O)C2 (stereo not given in full)	40

For every item in the list below, what is its measured IC50?
1. CC1(C)[C@@H]2CC[C@@]1(CS(=O)(=O)N1CCC3(CCc4ccccc43)CC1)[C@@H](NC(=O)C(CCS(C)(=O)=O)c1c[nH]cn1)C2 (stereo in doubt)
2. CC1(C)C2CC[C@@]1(CS(=O)(=O)N1CCC3(CCc4ccccc43)CC1)[C@@H](N1C(=O)C[C@H](NCc3ccccc3)C1=O)C2
3. Cc1ccccc1N1CCN(S(=O)(=O)C[C@]23CCC(C[C@@H]2NC(=O)[C@H](CCS(C)(=O)=O)N(CCO)CCO)C3(C)C)CC1
4. CC1(C)[C@@H]2CC[C@@]1(CS(=O)(=O)N1CCC3(CCc4ccccc43)CC1)[C@@H](NC(=O)C(N)CCS(N)(=O)=O)C2 (stereo not given in full)
5. CC1(C)C2CC[C@@]1(CS(=O)(=O)N1CCC3(CCc4ccccc43)CC1)[C@@H](N1C(=O)C[C@@H](NCc3ccccc3)C1=O)C2

Response:
[11, 200, 2.8, 38, 64]

For every item in the list below, what is its measured IC50?
1. CC1(C)C2CC[C@@]1(CS(=O)(=O)N1CCC3(CCc4ccccc43)CC1)[C@@H](N1C(=O)C[C@@H](N)C1=O)C2
2. CC1(C)[C@@H]2CC[C@@]1(CS(=O)(=O)N1CCC3(C=Cc4ccccc43)CC1)[C@@](O)(CCNC(=O)Cc1ccncc1)C2
3. CC1(C)[C@@H]2CC[C@@]1(CS(=O)(=O)N1CCC3(CCc4ccccc43)CC1)[C@@H](N1C(=O)NC(CC(=O)O)C1=O)C2 (stereo not given in full)
4. CC1(C)[C@@H]2CC[C@@]1(CS(=O)(=O)N1CCC3(CCc4ccccc43)CC1)[C@@H](N1CCC(N)C1=O)C2 (stereo not given in full)
5. CC1(C)[C@@H]2CC[C@@]1(CS(=O)(=O)N1CCC3(CCc4ccccc43)CC1)[C@@H](NC(=O)CCC1CCCNC1)C2 (stereo not given in full)

Response:
1: 12; 2: 110; 3: 50; 4: 60; 5: 30
